# assayProcedure: yeast respiratory growth inhibition – glycerol medium, OD600, dry powder, dose response (AID 602184)
# statedConditions: S. cerevisiae growth in glycerol medium, OD600, 48 h; at 19.5 µM (top of the series)
readoutType: activity change, negative = growth inhibition (%)
Hi! Could you send only the number? It should be in %, unit omitted.

Query :: Param item = Cc1ccc(C(=O)Nc2nnc(-c3ccccc3)o2)cc1C ; retrieve measured activity change, negative = growth inhibition.
Result :: -3.03

Query :: Quick one: NC(=O)c1cccc(C(=O)Nc2nc(-c3ccc4c(c3)CCCC4)cs2)c1
Result :: -13.9

Query :: Quick one: Cc1cc(C)n(-c2nc3ccccc3c(=O)n2OCC#N)n1
Result :: -14.8

Query :: Quick one: COc1ccc(-c2nnc(NC(=O)c3ccc(S(=O)(=O)N4CCCc5ccccc54)cc3)o2)cc1
Result :: -22.8

Query :: Quick one: O=C(Nc1nc(-c2ccc3c(c2)CCCC3)cs1)c1ccccc1
Result :: -4.76

Query :: Quick one: Oc1c(C(c2ccc(Cl)cc2)N2CCCC2)ccc2cccnc12 (configuration not stated)
Result :: -8.5

Query :: Quick one: O=C(Nc1nc(-c2ccccc2)cs1)c1ccc(Br)s1
Result :: -11.7

These data points were gathered from PubChem BioAssay AID602184.
